Procedure Details: Apparent permeability by cell based assay
Assay type: ADME
Protocol Conditions: not told
Quantity Name: Papp (×10⁻⁶ cm/s)

Below, 3 compounds whose answers are already recorded.
The recorded Papp for C[C@@H](NC(=O)C1(NC(=O)c2ccon2)CC1)c1ncc(-c2cc(Cl)cc(Cl)c2OCC(F)F)cc1F is 35

The recorded Papp for CCOc1c(Cl)cccc1-c1ccc([C@@H](C)NC(=O)C2(NC(=O)C(F)(F)F)CC2)c(F)c1 is 29

The recorded Papp for C[C@@H](NC(=O)C1(NC(=O)C(F)(F)F)CC1)c1ccc(-c2cc(Cl)cc(Cl)c2OCC(F)(F)F)cc1F is 6.3

a: CCOc1c(Cl)cc(Cl)cc1-c1ccc([C@@H](C)NC(=O)C2(NC(=O)C(F)(F)F)CC2)c(F)c1
b: C[C@@H](NC(=O)C1(NC(=O)C(F)(F)F)CC1)c1ccc(-c2cc(Cl)cc(Cl)c2OCC(F)F)cc1F
**Q:** Form field 'greater Papp' accepts a or b ; which applies? Give the label of your selection.
**A:** b

Cited source: ChEMBL document CHEMBL1141596
